Assay: in vitro
Conditions: human, Exp 1 CC50 HelaR19
measured endpoint: CC50

Examples from the recorded data:
COc1ccc(N(Cc2ccc(F)cc2)C(=O)c2ccccn2)cc1: > 100 µM
COc1ccc(N(Cc2ccc(F)cc2)C(=O)c2cccs2)cc1: 52 µM
CC(C)c1ccc(CN(C(=O)c2ccco2)c2ccccc2)cc1 [Compound 19h]: 44.5 µM

The following molecules each have a reported value; give each one's CC50.
1. Cc1ccc(CN(C(=O)c2ccco2)c2ccccc2)cc1 [Compound 19g]
2. COc1ccc(N(Cc2ccccc2)C(=O)c2ccco2)cc1 [Compound 19c]
3. O=C(c1ccco1)N(Cc1ccc(S(F)(F)(F)(F)F)cc1)c1ccccc1 [Compound 19f]
4. O=C(c1ccc[nH]1)N(Cc1ccc(C(F)(F)F)cc1)c1ccccc1
5. COc1ccc(N(Cc2ccc(F)cc2)C(=O)c2cc[nH]c2)cc1 [Compound 12a]
6. COc1ccc(N(Cc2ccc(F)cc2)C(=O)c2ccc[nH]2)cc1

## Output
1: > 100 µM; 2: > 100 µM; 3: 30 µM; 4: > 100 µM; 5: > 100 µM; 6: > 100 µM

Values compiled from paper PMC7673538.
